Target: T1, Bdf1 bromodomain 1 (GST-tagged, WT) (Saccharomyces cerevisiae (strain ATCC …, UniProt P35817))
T1 chain: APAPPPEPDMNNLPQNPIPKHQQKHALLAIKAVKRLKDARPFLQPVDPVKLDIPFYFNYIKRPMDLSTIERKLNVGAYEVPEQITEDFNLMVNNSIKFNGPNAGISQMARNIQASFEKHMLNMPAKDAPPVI
Assay: histone peptide array probed with recombinant GST-bromodomain, signal normalised to myc peptide control
Non-standard residues stand in square brackets, D forms with d. No end group written: not given here. Arg(Me2s) = CN=C(NC)NCCC[C@H](N)C(=O)O
Measured Quantity: binding score

Example entries begin here.
- Binder: "SGRGKQGGK(Ac)ARAK(Ac)AKSRSS [H2a 1-19]"
  Result: 0.0104
- Binder: "PRKQLATKAA[Arg(Me2s)]K(Ac)SAPATGG [H3 16-35]"
  Result: 0.00843
- Binder: "ARTKQTARKSTGGKAPRKQ (A Rme2s T Kac Q T A R Kme3 S T G G K A P R K Q)"
  Result: 0.00412

# next binder below
Q: Reported binding score, binder ARTKQTARKSTGGKAPRKQ (A R T Kme2 Q T A Rme2s Kme1 S T G G K A P R K Q) : ____
Result: 0
